# Test system: Human immunodeficiency virus 1
# test-protocol: Effective concentration of compound required to protect human T-lymphocytic cells against the cytopathogenicity of HIV-1
# Format: functional, organism-based
# condition-description: Human immunodeficiency virus 1
reported-metric: pEC50
// pEC50 here means minus log10 of the molar concentration (mol/L)

For orientation, consider the following solved cases.
compound	test-target	quantitative-result
COC(=O)[C@@H]1NC(=O)C2NC(=O)C(NC(=O)C3NC(=O)C4NC(=O)C(NC(=O)C(N)c5ccc(O)c(c5)Oc5cc4cc(O)c5C)C(O)c4ccc(cc4)Oc4cc3cc(c4O)Oc3ccc(cc3)C2O)c2ccc(O)c(c2)-c2c(O)cc(O)cc21 (some centres undefined)	Human immunodeficiency virus 1	4.60
CNC(=O)[C@@H]1NC(=O)C2NC(=O)C(NC(=O)C3NC(=O)C4NC(=O)C(Cc5ccc(c(Cl)c5)Oc5cc3cc(c5O)Oc3ccc(cc3Cl)C2O)NC(=O)C(N)c2ccc(O)c(c2)Oc2cc(O)cc4c2)c2ccc(O)c(c2)-c2c1cc(O)c(CNC1C3CC4CC(C3)CC1C4)c2O (some centres undefined)	Human immunodeficiency virus 1	5.30
COC(=O)[C@@H]1NC(=O)C2NC(=O)C(NC(=O)C(N)c3cc(Oc4ccc(CC(NC(=O)OCc5ccccc5)C(=O)O)cc4Cl)c(O)c(c3)Oc3ccc(cc3Cl)C2O)c2ccc(O)c(c2)-c2c1cc(O)c(CNC1C3CC4CC(C3)CC1C4)c2O (some centres undefined)	Human immunodeficiency virus 1	4.77

Name the recorded pEC50 of the item CCCCc1ccc(CNC2C(Oc3c4cc5cc3Oc3ccc(cc3Cl)C(O)C3NC(=O)C(NC(=O)C5NC(=O)C5NC(=O)C(Cc6ccc(cc6)O4)NC(=O)C(NC)c4ccc(O)c(c4)Oc4cc(O)c(Cl)c5c4)c4ccc(O)c(c4)-c4c(O)cc(O)cc4[C@H](C(=O)NCCCN(C)C)NC3=O)OC(C(=O)NCCCN(C)C)C(O)C2O)cc1 (some centres undefined) in your answer.
4.92

src = ChEMBL document CHEMBL1145814
